Hey, just so you know, these numbers are from the supplement of paper PMC12783771.

B1: library; numbered along this chain (parent)
chain: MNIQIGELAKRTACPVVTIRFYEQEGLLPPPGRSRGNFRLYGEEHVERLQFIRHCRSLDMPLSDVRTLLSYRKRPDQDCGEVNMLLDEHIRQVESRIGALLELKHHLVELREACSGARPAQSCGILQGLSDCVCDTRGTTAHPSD

- Variants of: B1
- TEST DETAILS: sfGFP reporter fluorescence (15 h) (µM FITC); higher = higher leak
- EXPERIMENTAL PARAMETERS: library round: Round 1; ligand: none
MEASUREMENT TYPE: sfGFP reporter fluorescence
Form rule: numeric answer, no unit written next to it.

Some variants with known sfGFP reporter fluorescence results, for comparison:
May I ask what sfGFP reporter fluorescence has been recorded for D131S P143A ?
0.0606

Return reported sfGFP reporter fluorescence; argument: C79F G128M
0.0586

Can you look up the measured sfGFP reporter fluorescence of N83T G128I for me?
0.059

Please report the recorded sfGFP reporter fluorescence for L107I C114R .
0.059

***
Fill in the blank: the reported sfGFP reporter fluorescence of P61N P143L is ____.
0.0754

Which value of sfGFP reporter fluorescence has been reported for D64A D135R in the records?
0.0876

Look up sfGFP reporter fluorescence for this variant: D64T D131C
0.143

Bench note: what sfGFP reporter fluorescence did P15A P61N show?
0.0831
